systemTested: human Y2 receptor (human) (UniProt P49146)
Sequence (P49146 whole entry): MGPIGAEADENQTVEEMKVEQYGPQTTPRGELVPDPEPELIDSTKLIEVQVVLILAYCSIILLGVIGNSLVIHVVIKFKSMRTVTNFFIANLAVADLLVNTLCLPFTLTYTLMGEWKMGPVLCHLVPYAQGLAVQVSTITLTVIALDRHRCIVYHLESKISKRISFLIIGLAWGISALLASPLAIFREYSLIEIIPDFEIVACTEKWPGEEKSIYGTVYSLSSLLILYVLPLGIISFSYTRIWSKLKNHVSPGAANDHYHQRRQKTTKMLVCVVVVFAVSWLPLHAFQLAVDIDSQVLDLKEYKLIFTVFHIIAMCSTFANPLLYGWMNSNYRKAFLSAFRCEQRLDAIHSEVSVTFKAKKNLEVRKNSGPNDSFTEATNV
protocolDetails: cell-based or functional assay
Non-standard residues stand in square brackets, D forms with d. No end group written: not given here. *: point of attachment. tBuAla = CC(C)(C)C[C@H](N)C(=O)O; 4Pal = N[C@@H](Cc1ccncc1)C(=O)O; Cha = N[C@@H](CC1CCCCC1)C(=O)O; dIva = CC[C@@](C)(N)C(=O)O; Isobutyryl = CC(C)C(=O)*; NMeA = CN[C@@H](C)C(=O)O; Abu = CC[C@H](N)C(=O)O; Nleu = CC(C)CNCC(=O)O; Aib = CC(C)(N)C(=O)O; Bz = O=C(c1ccccc1)*; Ahx = NCCCCCC(=O)O
measurementLabel: GBA EC50 Ratio (vs PYY(3-36)), [35S]GTPγS
Keep the answer to the number alone.

Below, each entry is followed by its recorded GBA EC50 Ratio (vs PYY(3-36)), [35S]GTPγS result.
1) Bz-RH[Cha]INL[4Pal]TRQR[Cha]-NH2 (SMILES CC[C@H](C)[C@H](NC(=O)[C@H](CC1CCCCC1)NC(=O)[C@H](Cc1c[nH]cn1)NC(=O)[C@H](CCCNC(=N)N)NC(=O)c1ccccc1)C(=O)N[C@@H](CC(N)=O)C(=O)N[C@@H](CC(C)C)C(=O)N[C@@H](Cc1ccncc1)C(=O)N[C@H](C(=O)N[C@@H](CCCNC(=N)N)C(=O)N[C@@H](CCC(N)=O)C(=O)N[C@@H](CCCNC(=N)N)C(=O)N[C@@H](CC1CCCCC1)C(N)=O)[C@@H](C)O) [Benzoyl-[Cha27,36, Ile28, Pya(4)31]-PYY(25-36)] ... 8.5
2) Ac-[dS][NMeA]RH[Cha][Cha]NL[Aib]TRQR[Cha]-NH2 (SMILES CC(=O)N[C@H](CO)C(=O)N(C)[C@@H](C)C(=O)N[C@@H](CCCNC(=N)N)C(=O)N[C@@H](Cc1c[nH]cn1)C(=O)N[C@@H](CC1CCCCC1)C(=O)N[C@@H](CC1CCCCC1)C(=O)N[C@@H](CC(N)=O)C(=O)N[C@@H](CC(C)C)C(=O)NC(C)(C)C(=O)N[C@H](C(=O)N[C@@H](CCCNC(=N)N)C(=O)N[C@@H](CCC(N)=O)C(=O)N[C@@H](CCCNC(=N)N)C(=O)N[C@@H](CC1CCCCC1)C(N)=O)[C@@H](C)O) [Ac-[D-Ser23, MeAla24, Cha27,28,36, Aib31]-PYY(23-36)] ... 5.1
3) Ac-S[dP]R[dIva][Cha][Cha]NL[Aib]TRQR[Cha]-NH2 (SMILES CC[C@@](C)(NC(=O)[C@H](CCCNC(=N)N)NC(=O)[C@H]1CCCN1C(=O)[C@H](CO)NC(C)=O)C(=O)N[C@@H](CC1CCCCC1)C(=O)N[C@@H](CC1CCCCC1)C(=O)N[C@@H](CC(N)=O)C(=O)N[C@@H](CC(C)C)C(=O)NC(C)(C)C(=O)N[C@H](C(=O)N[C@@H](CCCNC(=N)N)C(=O)N[C@@H](CCC(N)=O)C(=O)N[C@@H](CCCNC(=N)N)C(=O)N[C@@H](CC1CCCCC1)C(N)=O)[C@@H](C)O) [Ac-[D-Pro24, D-Iva26, Cha27,28,36, Aib31]-PYY(23-36)] ... 13
4) Ac-S[Nleu]RH[Cha][Cha]NL[Aib]TRQR[Cha]-NH2 (SMILES CC(=O)N[C@@H](CO)C(=O)N(CC(=O)N[C@@H](CCCNC(=N)N)C(=O)N[C@@H](Cc1c[nH]cn1)C(=O)N[C@@H](CC1CCCCC1)C(=O)N[C@@H](CC1CCCCC1)C(=O)N[C@@H](CC(N)=O)C(=O)N[C@@H](CC(C)C)C(=O)NC(C)(C)C(=O)N[C@H](C(=O)N[C@@H](CCCNC(=N)N)C(=O)N[C@@H](CCC(N)=O)C(=O)N[C@@H](CCCNC(=N)N)C(=O)N[C@@H](CC1CCCCC1)C(N)=O)[C@@H](C)O)CC(C)C) [Ac-[N(iBu)Gly24, Cha27,28,36, Aib31]-PYY(23-36)] ... 8.4
5) Ac-[Ahx]E[dP]RH[Cha][Cha]NK[Aib]TRQR[Cha]-NH2 (SMILES CC(=O)NCCCCCC(=O)N[C@@H](CCC(=O)O)C(=O)N1CCC[C@@H]1C(=O)N[C@@H](CCCNC(=N)N)C(=O)N[C@@H](Cc1c[nH]cn1)C(=O)N[C@@H](CC1CCCCC1)C(=O)N[C@@H](CC1CCCCC1)C(=O)N[C@@H](CC(N)=O)C(=O)N[C@@H](CCCCN)C(=O)NC(C)(C)C(=O)N[C@H](C(=O)N[C@@H](CCCNC(=N)N)C(=O)N[C@@H](CCC(N)=O)C(=O)N[C@@H](CCCNC(=N)N)C(=O)N[C@@H](CC1CCCCC1)C(N)=O)[C@@H](C)O) [Ac-[Acp22, Glu23, D-Pro24, Cha27,28,36, Lys30, Aib31]-PYY(22-36)] ... 1.1
6) [NMeA]S[dP]RH[Cha][Cha]NL[Aib]TRQR[Cha]-NH2 (N-terminus assumed; SMILES CN[C@@H](C)C(=O)N[C@@H](CO)C(=O)N1CCC[C@@H]1C(=O)N[C@@H](CCCNC(=N)N)C(=O)N[C@@H](Cc1c[nH]cn1)C(=O)N[C@@H](CC1CCCCC1)C(=O)N[C@@H](CC1CCCCC1)C(=O)N[C@@H](CC(N)=O)C(=O)N[C@@H](CC(C)C)C(=O)NC(C)(C)C(=O)N[C@H](C(=O)N[C@@H](CCCNC(=N)N)C(=O)N[C@@H](CCC(N)=O)C(=O)N[C@@H](CCCNC(=N)N)C(=O)N[C@@H](CC1CCCCC1)C(N)=O)[C@@H](C)O) [[MeAla22, D-Pro24, Cha27,28,36, Aib31]-PYY(22-36)] ... 0.72

// Isobutyryl-R[Abu][Cha][Cha]N[tBuAla][Aib]TRQR[Cha]-NH2 (SMILES CC[C@H](NC(=O)[C@H](CCCNC(=N)N)NC(=O)C(C)C)C(=O)N[C@@H](CC1CCCCC1)C(=O)N[C@@H](CC1CCCCC1)C(=O)N[C@@H](CC(N)=O)C(=O)N[C@@H](CC(C)(C)C)C(=O)NC(C)(C)C(=O)N[C@H](C(=O)N[C@@H](CCCNC(=N)N)C(=O)N[C@@H](CCC(N)=O)C(=O)N[C@@H](CCCNC(=N)N)C(=O)N[C@@H](CC1CCCCC1)C(N)=O)[C@@H](C)O) [Isobutanoyl-[Abu26, Cha27,28,36, Leu(Me)30, Aib31]-PYY(25-36)] : GBA EC50 Ratio (vs PYY(3-36)), [35S]GTPγS value = 26
